meta.source: paper PMC11436873

test: kinetic aqueous solubility; conditions: aqueous solution, pH 7.4

[
  {
    "inputSmiles": "CCc1nn(C)c2nc(-c3ccc(C(=O)O)cc3)nc(NCc3ccc(F)cc3)c12",
    "solubility kinetic (µM)": 200
  }
]

----------
assay: kinetic aqueous solubility; conditions: PBS, pH 7.4, aqueous buffer, kinetic from dmso stock

[
  {
    "inputSmiles": "COc1ccc(CNc2nc(-c3ccc(C(=O)O)cc3)nc3c2c2ccccc2n3C)cc1Cl",
    "solubility kinetic at 2 h, µM": 21
  }
]

----------
biological target: hERG potassium channel (Homo sapiens); assay: hERG [3H]-dofetilide competitive binding; settings: probe [3H]-dofetilide
Sequence (Q12809 whole entry): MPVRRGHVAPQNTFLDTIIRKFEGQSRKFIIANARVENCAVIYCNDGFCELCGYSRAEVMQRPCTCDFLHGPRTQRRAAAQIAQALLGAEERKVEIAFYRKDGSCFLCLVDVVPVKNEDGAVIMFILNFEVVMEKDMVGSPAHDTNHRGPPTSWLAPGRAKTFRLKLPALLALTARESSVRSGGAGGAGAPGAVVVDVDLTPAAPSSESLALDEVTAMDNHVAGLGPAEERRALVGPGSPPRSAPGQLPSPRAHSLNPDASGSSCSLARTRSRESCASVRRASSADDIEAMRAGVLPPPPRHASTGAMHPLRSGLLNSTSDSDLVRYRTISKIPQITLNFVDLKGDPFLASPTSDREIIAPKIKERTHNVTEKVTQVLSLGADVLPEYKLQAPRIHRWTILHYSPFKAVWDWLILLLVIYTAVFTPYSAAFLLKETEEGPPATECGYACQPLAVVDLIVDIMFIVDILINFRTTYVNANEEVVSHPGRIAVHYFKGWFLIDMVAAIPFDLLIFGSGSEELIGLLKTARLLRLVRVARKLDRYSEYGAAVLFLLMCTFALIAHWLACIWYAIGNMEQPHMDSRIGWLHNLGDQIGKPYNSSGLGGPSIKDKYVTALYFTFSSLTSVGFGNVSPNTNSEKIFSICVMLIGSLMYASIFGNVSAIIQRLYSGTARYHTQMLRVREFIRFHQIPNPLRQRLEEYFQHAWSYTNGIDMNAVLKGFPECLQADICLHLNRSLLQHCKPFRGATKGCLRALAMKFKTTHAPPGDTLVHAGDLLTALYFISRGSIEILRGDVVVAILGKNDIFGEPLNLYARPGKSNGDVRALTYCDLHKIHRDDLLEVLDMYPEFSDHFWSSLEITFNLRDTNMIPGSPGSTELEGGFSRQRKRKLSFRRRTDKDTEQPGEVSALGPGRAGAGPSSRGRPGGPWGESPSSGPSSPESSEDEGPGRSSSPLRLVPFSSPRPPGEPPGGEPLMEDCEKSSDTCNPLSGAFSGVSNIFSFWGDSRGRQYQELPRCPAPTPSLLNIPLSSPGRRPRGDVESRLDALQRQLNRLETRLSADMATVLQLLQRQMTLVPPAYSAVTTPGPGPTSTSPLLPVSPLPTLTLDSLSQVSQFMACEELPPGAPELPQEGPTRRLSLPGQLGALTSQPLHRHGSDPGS
measuredMetric: inhibition at 10 µM (%)

[
  {
    "inputSmiles": "CCc1nn(C)c2nc(-c3ccc(C(=O)O)cc3)nc(NCc3ccc(F)cc3)c12",
    "measuredMetric": "inhibition at 10 µM",
    "recordedValue": -14.7
  }
]
